test system: COLO 205 colon; assay: NCI tumour cell line growth inhibition, 48 h
// reported GI50 for each item listed

- compound: "CCC[CH2][Ge]([CH2]CCC)([CH2]CCC)[O]C(=O)CCl"
  GI50: "10.4 µM"
- compound: "CCCCCCCCCC[C@@H](O)[C@H]1CC[C@@H]([C@H]2CC[C@H]([C@H](O)CCCCCCCCCC[C@@H]3CC(CC(C)=O)C(=O)O3)O2)O1 (stereo not given in full)"
  GI50: "15.6 µM"
- compound: "COc1cc(C=NCC(=O)CSC(c2ccccc2)c2ccccc2)cc(OC)c1OC"
  GI50: "4.96 µM"
- compound: "Nc1ncnc2c(C3OC(CO)C(O)C3O)c[nH]c12 (stereo not given)"
  GI50: "0.0193 µM"
- compound: "CC(=O)OCC1OC(O[C@@H]2C[C@H]3C(C)(C)[C@H](OC(C)=O)CC[C@]3(C)[C@H]3CC[C@@H]4[C@]5(CC[C@@]4(C)[C@@]32C)O[C@@H]([C@H](O)C(C)(C)O)C[C@@H]5C)C(O)C(O)C1O (stereo not given in full)"
  GI50: "4.11 µM"
- compound: "C=C(C)[C@@H]1CC[C@]2(C#N)CC[C@]3(C)[C@H](CC[C@@H]4[C@@]5(C)CCCNC(C)(C)[C@@H]5CC[C@]43C)[C@@H]12"
  GI50: "1.96 µM"
- compound: "CN(C)c1ccc(/C=N/Nc2ccc(-c3nc4ccccc4[nH]3)cc2)cc1"
  GI50: "20.3 µM"
- compound: "CCn1cc(C2NC(=O)c3cc(F)ccc3N2)c2cccc(Cl)c21 (stereo not given)"
  GI50: "0.349 µM"
- compound: "Cc1cc(C#Cc2ccccc2)ccc1-n1c(/C=C/c2ccc(O)cc2)nc2ccccc2c1=O"
  GI50: "1.99 µM"
- compound: "COCCn1cc(-c2csc(-c3c[nH]c4ccc(F)cc34)n2)c2cccnc21"
  GI50: "2.69 µM"

###

// reported TGI for each item listed
test system: SF-295 CNS; assay: NCI tumour cell line growth inhibition, 48 h
parameter-measured: TGI

- smiles-str: "COC(=O)[C@]12CCC(=O)N1[C@H](C(=O)O)Cc1c2[nH]c2ccccc12"
  parameter-measured: "TGI"
  observed-value: "> 100 µM"
- smiles-str: "c1ccc(CN(Cc2ccccn2)Cn2cccn2)nc1"
  parameter-measured: "TGI"
  observed-value: "> 100 µM"
- smiles-str: "O=c1[nH]nc(Cc2ccc([N+](=O)[O-])cc2)[nH]1"
  parameter-measured: "TGI"
  observed-value: "> 100 µM"
- smiles-str: "CCN(CC)c1ccc(/C=N\\NC(=O)c2cccc(Nc3ccnc(C(F)(F)F)c3)c2)c(O)c1"
  parameter-measured: "TGI"
  observed-value: "2.47 µM"
- smiles-str: "COc1cc(C(=O)c2c(-c3ccccc3)oc3ccccc23)cc(OC)c1O"
  parameter-measured: "TGI"
  observed-value: "6.94 µM"
- smiles-str: "CN(CCc1ccccn1)C(=S)N/N=C/c1ccccn1"
  parameter-measured: "TGI"
  observed-value: "> 43.5 µM"

###

system: DLD-1 colon; assay: NCI tumour cell line growth inhibition, 48 h

- compound: "O=C1CCCc2c(O)ccc(O)c21"
  target-desc: "DLD-1 colon"
  TGI: "> 100 µM"
- compound: "Cc1ccc(NC(=O)NC23CC4CC(CC(F)(C4)C2)C3)cc1"
  target-desc: "DLD-1 colon"
  TGI: "> 100 µM"
- compound: "COc1ccc2c(c1)[n+]([O-])c(-c1ccc(Cl)c(Cl)c1)c(N)[n+]2[O-]"
  target-desc: "DLD-1 colon"
  TGI: "> 100 µM"
- compound: "CC1=NN(C(=O)Cc2ccccc2)C(=O)/C1=C\\c1cccc(O)c1"
  target-desc: "DLD-1 colon"
  TGI: "> 100 µM"
- compound: "CC1=C[C@H]2C[C@@]3(C)O[C@@H]([C@]4(C)CC[C@H]([C@@H](C)C(=O)O)OO4)CC3C(C)(C)[C@H]2CC1 (some centres undefined)"
  target-desc: "DLD-1 colon"
  TGI: "2.47 µM"
- compound: "COc1ccccc1OCC(COC(=O)Nc1ccc(C)cc1)OC(=O)Nc1ccc(C)cc1 (centres undefined)"
  target-desc: "DLD-1 colon"
  TGI: "31.8 µM"
- compound: "CC(C)c1cc2c(O)c(c1)Cc1cc(C(C)C)cc(c1O)Cc1cc(C(C)C)cc(c1O)Cc1cc(C(C)C)cc(c1O)Cc1cc(C(C)C)cc(c1O)Cc1cc(C(C)C)cc(c1O)C2"
  target-desc: "DLD-1 colon"
  TGI: "> 100 µM"
- compound: "COc1ccc(-c2nc(N)nc(-c3cc(C)ccc3O)c2Cl)cc1"
  target-desc: "DLD-1 colon"
  TGI: "> 100 µM"
- compound: "Cc1cc(C(=O)NCCN(C)C)c2nc3ccccc3nc2c1"
  target-desc: "DLD-1 colon"
  TGI: "48.9 µM"
